target: human CD33 H317A (human, UniProt P20138 18-364); experiment: alanine scan, flow cytometry, HEK293-T;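 also: antibody binding to each alanine-substituted CD33 mutant expressed transiently in HEK293-T, read as fluorescence minus background, mean of duplicates, relative to wild-type CD33 set as 100%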
Sequence (P20138 18-364 H317A limits assumed): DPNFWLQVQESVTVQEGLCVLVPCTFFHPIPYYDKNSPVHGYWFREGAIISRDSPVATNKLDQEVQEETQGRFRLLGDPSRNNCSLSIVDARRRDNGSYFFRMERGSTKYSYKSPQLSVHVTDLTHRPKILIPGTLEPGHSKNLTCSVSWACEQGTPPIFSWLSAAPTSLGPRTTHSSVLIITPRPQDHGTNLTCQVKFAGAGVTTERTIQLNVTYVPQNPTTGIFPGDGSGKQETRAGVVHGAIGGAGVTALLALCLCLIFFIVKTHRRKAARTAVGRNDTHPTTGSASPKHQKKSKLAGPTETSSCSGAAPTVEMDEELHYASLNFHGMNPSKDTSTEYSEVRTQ
MEASUREMENT NAME: Mean % WT Binding (% WT binding)

{"BINDER": "Refmab #2 (antibody, V domains shown, The alanine scan used IgG or Fab) VH: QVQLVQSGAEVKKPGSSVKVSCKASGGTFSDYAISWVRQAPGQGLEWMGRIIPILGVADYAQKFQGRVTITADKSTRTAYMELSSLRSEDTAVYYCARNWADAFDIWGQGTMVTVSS VL: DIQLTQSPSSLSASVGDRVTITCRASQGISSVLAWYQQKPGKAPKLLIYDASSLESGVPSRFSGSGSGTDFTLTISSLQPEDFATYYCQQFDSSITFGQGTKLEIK", "QUANTITATIVE READOUT": 99.8}
